Listing of entries alongside the reported pIC50.
Measured target: COX-1 (Homo sapiens, UniProt P23219)
Sequence (P23219 24-599): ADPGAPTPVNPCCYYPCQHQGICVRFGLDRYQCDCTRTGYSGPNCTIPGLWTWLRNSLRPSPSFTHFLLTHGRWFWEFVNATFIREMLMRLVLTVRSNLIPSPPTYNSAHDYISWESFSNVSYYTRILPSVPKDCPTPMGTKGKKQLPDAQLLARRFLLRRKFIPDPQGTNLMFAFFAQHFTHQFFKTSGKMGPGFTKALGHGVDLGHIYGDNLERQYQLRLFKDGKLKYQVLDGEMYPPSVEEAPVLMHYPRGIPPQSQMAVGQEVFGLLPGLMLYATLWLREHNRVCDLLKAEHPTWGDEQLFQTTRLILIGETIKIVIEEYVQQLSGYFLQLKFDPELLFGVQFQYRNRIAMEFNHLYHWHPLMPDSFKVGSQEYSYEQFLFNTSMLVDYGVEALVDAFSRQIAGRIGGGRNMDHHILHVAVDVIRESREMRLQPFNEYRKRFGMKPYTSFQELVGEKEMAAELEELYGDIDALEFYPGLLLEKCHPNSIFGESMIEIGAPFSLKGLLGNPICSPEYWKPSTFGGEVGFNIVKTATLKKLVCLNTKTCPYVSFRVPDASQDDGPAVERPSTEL
Assay details: Assay of COX-1 activity from U937 cell microsomes
Assay type: biochemical
Design: endogenous in cells; host or cells: U937 cells, 100,000 x g microsomal fraction
Condition label: PGE2
Method: U 937 cells are pelleted by centrifugation at 500 x g for 5 min and washed once with phosphate-buffered saline and repelleted. […] Samples are neutralized with 25 µl of 1 N NaOH prior to quantitation of PGE2 content by radioimmunoassay (Dupont-NEN or Amersham assay kits). […] In the assays, inhibition is determined by measuring the amount of a prostaglandin synthesized in the presence and absence of a putative inhibitor. […]
pIC50: −log10 of the molar value.
Measured metric: pIC50

• CS(=O)(=O)c1ccc(C2=C(c3ccc(F)cc3)C(=O)CC2)cc1 = 6.35
• CS(=O)(=O)c1ccc(C2=C(c3cc(F)cc(F)c3)C(=O)CC2)cc1 = 4.96

###

Measured target: COX-1 (Homo sapiens)
Assay details: Human whole blood assay, COX-1 (clotting-induced TxB2 production)
Type: cell-based
Design: platelets in whole blood contain a large amount of the COX-1 enzyme; endogenous in cells; host or cells: platelets in fresh human whole blood without anticoagulant
Condition label: clotting-induced TxB2, 1 hour at 37°C
pIC50: −log10 of the molar value.
Entries and their pIC50
Measured metric: pIC50

- CS(=O)(=O)c1ccc(C2=C(c3cc(F)cc(F)c3)C(=O)CC2)cc1: 4.11
- CS(=O)(=O)c1ccc(C2=C(c3ccc(F)cc3)C(=O)CC2)cc1: 5.36

###

Measured target: COX-1 (Homo sapiens)
Assay details: Whole cell assay for COX-1 using CHO transfected cell line CHO[hCOX-1]
Type: cell-based
Parameters: platelets in whole blood contain a large amount of the COX-1 enzyme; endogenous in cells; host or cells: platelets in fresh human whole blood without anticoagulant
Condition label: CHO[hCOX-1] cells, 0.5 µM AA, PGE2
Measured metric: IC50

* CS(=O)(=O)c1ccc(C2=C(c3cc(F)cc(F)c3)C(=O)CC2)cc1 | > 50 µM
